Tested on: SYO-1 complex spheroid growth, percent test/control
Experiment: Anticancer human tumor SYO-1 cell line growth inhibition [Asc];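 further: compound exposure lasted 7 days after spheroids grew 3 days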
Settings: curve of first compound; second compound 0.1 µM
MEASUREMENT NAME: IC50

Please review the following examples before continuing.
COMPOUND	MEASUREMENT NAME	VALUE
NC(=O)C(=Cn1cnc(-c2cc(C(F)(F)F)cc(C(F)(F)F)c2)n1)c1cncnc1 + CNC(C)C(=O)NC1CN(S(=O)(=O)c2cccc(S(=O)(=O)N3CCC4CCC(C(=O)NC(c5ccccc5)c5ccccc5)N4C(=O)C(NC(=O)C(C)NC)C3)c2)CCC2CCC(C(=O)NC(c3ccccc3)c3ccccc3)N2C1=O	IC50	260 nM
CNC(C)C(=O)NC1CN(S(=O)(=O)c2cccc(S(=O)(=O)N3CCC4CCC(C(=O)NC(c5ccccc5)c5ccccc5)N4C(=O)C(NC(=O)C(C)NC)C3)c2)CCC2CCC(C(=O)NC(c3ccccc3)c3ccccc3)N2C1=O (stereo unspecified) + Cc1c(S(C)(=O)=O)c(-c2cc(F)cc(N3CCN(c4ccc(NS(=O)(=O)c5ccc(NC(CCN6CCC(C(=O)OCCCP(=O)(O)O)CC6)CSc6ccccc6)c(S(=O)(=O)C(F)(F)F)c5)cc4)CC3)c2)c(-c2ccc(Cl)cc2)n1C(C)C	IC50	> 1000 nM
CCN1CCN(Cc2ccc(Nc3ncc(F)c(-c4cc(F)c5nc(C)n(C(C)C)c5c4)n3)nc2)CC1 + Cc1c(S(C)(=O)=O)c(-c2cc(F)cc(N3CCN(c4ccc(NS(=O)(=O)c5ccc(NC(CCN6CCC(C(=O)OCCCP(=O)(O)O)CC6)CSc6ccccc6)c(S(=O)(=O)C(F)(F)F)c5)cc4)CC3)c2)c(-c2ccc(Cl)cc2)n1C(C)C	IC50	> 1000 nM
NC1CCC(NC2CC2c2ccccc2)CC1 (stereo unspecified) + CNC(C)C(=O)NC1CN(S(=O)(=O)c2cccc(S(=O)(=O)N3CCC4CCC(C(=O)NC(c5ccccc5)c5ccccc5)N4C(=O)C(NC(=O)C(C)NC)C3)c2)CCC2CCC(C(=O)NC(c3ccccc3)c3ccccc3)N2C1=O	IC50	> 100 nM
NC(=O)C(=Cn1cnc(-c2cc(C(F)(F)F)cc(C(F)(F)F)c2)n1)c1cncnc1 + Cc1c(S(C)(=O)=O)c(-c2cc(F)cc(N3CCN(c4ccc(NS(=O)(=O)c5ccc(NC(CCN6CCC(C(=O)OCCCP(=O)(O)O)CC6)CSc6ccccc6)c(S(=O)(=O)C(F)(F)F)c5)cc4)CC3)c2)c(-c2ccc(Cl)cc2)n1C(C)C	IC50	165 nM

Turning to the following compound.
Record C#Cc1c(F)ccc2cc(O)cc(-c3ncc4c(N5CC6CCC(C5)N6)nc(OCC56CCCN5CC(F)C6)nc4c3F)c12 (stereo unspecified) + CNC(C)C(=O)NC1CN(S(=O)(=O)c2cccc(S(=O)(=O)N3CCC4CCC(C(=O)NC(c5ccccc5)c5ccccc5)N4C(=O)C(NC(=O)C(C)NC)C3)c2)CCC2CCC(C(=O)NC(c3ccccc3)c3ccccc3)N2C1=O : what is its IC50 with SYO-1 complex spheroid growth, percent test/control? > 10000 nM
